These entries and their values trace back to ChEMBL document CHEMBL2375301.

- Test system: HCT-116
- protocol_notes: Cytotoxicity against human HCT116 cells after 72 hrs by WST-8 assay
- Type: functional, cell-based
- details: HCT-116, 72 h
Would you mind telling me the reported IC50 of each entry?
Give bare numbers, in µM.

Reference set (4 entries):
COc1cc2c(Nc3nc4ccc(C(=O)Nc5c(C)cccc5Cl)cc4s3)ncnc2cc1OCCCN1CCCC1    63.8
COc1cc2c(Nc3nc4ccc(C(=O)Nc5c(C)cc(C)cc5C)cc4s3)ncnc2cc1OCCCN1CCCCC1C (stereo not drawn)    5.6
COc1cc2c(Nc3nc4ccc(C(=O)Nc5c(C)cc(C)cc5C)cc4s3)ncnc2cc1OCCCN1CCOCC1    5.6
Cc1nc(Nc2ncc(C(=O)Nc3c(C)cccc3Cl)s2)cc(N2CCN(CCO)CC2)n1    5.3

// moving on: another record for IC50
IC50 lookup needed for COc1cc2c(Nc3nc4ccc(C(=O)Nc5c(C)cc(C)cc5C)cc4s3)ncnc2cc1OCCCN1CCC(C)CC1 , thanks.
6.9
